The values you see were collected from ChEMBL document CHEMBL1122602.

No. of cures values for the compounds below.
# Test system: Mus musculus
# ASSAY PROCEDURE: Antimalarial activity was assessed against Plasmodium berghei in mice (Mus musculus) at 640 mg/kg dosage of the compound; Cure
# Assay type: functional
Lab note: record just the number, no unit beside it.

Reference set (3 entries):
C/C(=N\N=C(/S)N1CCC(c2ccccc2)CC1)c1nccc2ccccc12	4
CC1CN(/C(S)=N/NC(C)c2nccc3ccccc23)CC(C)O1 (stereo unspecified)	2
C/C(=N\N=C(/S)N1CC(C)OC(C)C1)c1nccc2ccccc12 (stereo unspecified)	1

Please turn your attention to the following entry.
What is its No. of cures for Mus musculus? Entry: CC(N/N=C(\S)N1CCCC1)c1nccc2ccccc12 (stereo unspecified)
1

====

No. of cures values for the compounds below.
# Test system: Mus musculus
# ASSAY PROCEDURE: Antimalarial activity was assessed against Plasmodium berghei in mice (Mus musculus) at 80 mg/kg dosage of the compound; Cure
# Type: functional
Your answer should be a plain number; it is taken to be in count.

Reference set (3 entries):
CC(N/N=C(\S)N1CC2CCC(CC2)C1)c1nccc2ccccc12 (stereo not given)	1
C/C(=N\N=C(/S)N1CC2CCC(CC2)C1)c1nccc2ccccc12	3
CC(N/N=C(\S)N(C)C1CCCCC1)c1nccc2ccccc12 (stereo not given)	3

Please turn your attention to the following entry.
What is its No. of cures for Mus musculus? Entry: `C/C(=N\N=C(/S)N1CCC(C)CC1)c1nccc2ccccc12`
1

====

No. of cures values for the compounds below.
# Test system: Mus musculus
# ASSAY PROCEDURE: Antimalarial activity was assessed against Plasmodium berghei in mice (Mus musculus) at 640 mg/kg dosage of the compound; Cure
# Format: functional

Reference set (3 entries):
CC(N/N=C(\S)N1CC2CCC(CC2)C1)c1nccc2ccccc12 (configuration not stated)	3
CC(N/N=C(\S)N1CCCCCC1)c1nccc2ccccc12 (configuration not stated)	2
C/C(=N\N=C(/S)N1CCCCCC1)c1nccc2ccccc12	1

What is its No. of cures for Mus musculus? Entry: CC(N/N=C(\S)N1CCN(c2ccccn2)CC1)c1nccc2ccccc12 (configuration not stated)
3

What is its No. of cures for Mus musculus? Entry: CC(N/N=C(\S)N(C)C1CCCCC1)c1nccc2ccccc12 (configuration not stated)
1

What is its No. of cures for Mus musculus? Entry: CC(N/N=C(\S)N1CCC(c2ccccc2)CC1)c1nccc2ccccc12 (configuration not stated)
4

What is its No. of cures for Mus musculus? Entry: `C/C(=N\N=C(/S)N1CC2CCC(CC2)C1)c1nccc2ccccc12`
5
